- Target of assay: human JAK3 (a.a. 781-1124) (Homo sapiens)
- Construct: JAK3 (a.a. 781-1124); His tag (N); made in house; host or cells: insect cells (baculovirus)
- Sequence (P52333 781-1124): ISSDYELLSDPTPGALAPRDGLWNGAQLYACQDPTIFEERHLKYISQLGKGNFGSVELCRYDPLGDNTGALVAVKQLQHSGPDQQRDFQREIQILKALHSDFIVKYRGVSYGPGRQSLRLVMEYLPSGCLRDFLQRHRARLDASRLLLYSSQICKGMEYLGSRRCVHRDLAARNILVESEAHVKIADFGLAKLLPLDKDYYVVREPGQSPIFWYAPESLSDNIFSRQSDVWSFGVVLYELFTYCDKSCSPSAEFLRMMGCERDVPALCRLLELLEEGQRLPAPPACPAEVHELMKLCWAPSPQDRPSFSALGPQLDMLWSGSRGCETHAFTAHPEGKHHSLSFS
- Assay procedure: In vitro JAK kinase assay (HTRF, phosphorylation of a biotinylated peptide), JAK3
- Format: biochemical
- Condition info: Table D1
pIC50: −log10 of the molar value. Counter-ions that a name gives are not always drawn.
Measurement label: pIC50

{"Molecule": "Cc1csc(NC(=O)N2CCC(CCOc3ccc4cc3CCc3cncc(c3)Nc3ncc(Cl)c(n3)N4)CC2)c1 [Example D172, bis(trifluoroacetate)]", "Recorded measurement": "< 6.40"}
{"Molecule": "O=S1(=O)CCOc2cccc(c2)Nc2ncc(Cl)c(n2)Nc2cccc1c2 [Example D14, trifluoroacetate]", "Recorded measurement": 7.96}
{"Molecule": "O=C(CC1CN(C(=O)c2ccn[nH]2)C1)Nc1ccc2cc1CCc1cncc(c1)Nc1ncc(Cl)c(n1)N2 [Example D150, bis(trifluoroacetate)]", "Recorded measurement": "< 6.00"}

----------
Quick reference for ALK % of inhibition at a concentration of 500 nM or 1 mM among some compounds
- Target of assay: Recombinant Human Anaplastic Lymphoma Kinase (Homo sapiens)
- Construct: purchased Invitrogen, Carlsbad, Calif
- Sequence (Q9UM73 19-1620): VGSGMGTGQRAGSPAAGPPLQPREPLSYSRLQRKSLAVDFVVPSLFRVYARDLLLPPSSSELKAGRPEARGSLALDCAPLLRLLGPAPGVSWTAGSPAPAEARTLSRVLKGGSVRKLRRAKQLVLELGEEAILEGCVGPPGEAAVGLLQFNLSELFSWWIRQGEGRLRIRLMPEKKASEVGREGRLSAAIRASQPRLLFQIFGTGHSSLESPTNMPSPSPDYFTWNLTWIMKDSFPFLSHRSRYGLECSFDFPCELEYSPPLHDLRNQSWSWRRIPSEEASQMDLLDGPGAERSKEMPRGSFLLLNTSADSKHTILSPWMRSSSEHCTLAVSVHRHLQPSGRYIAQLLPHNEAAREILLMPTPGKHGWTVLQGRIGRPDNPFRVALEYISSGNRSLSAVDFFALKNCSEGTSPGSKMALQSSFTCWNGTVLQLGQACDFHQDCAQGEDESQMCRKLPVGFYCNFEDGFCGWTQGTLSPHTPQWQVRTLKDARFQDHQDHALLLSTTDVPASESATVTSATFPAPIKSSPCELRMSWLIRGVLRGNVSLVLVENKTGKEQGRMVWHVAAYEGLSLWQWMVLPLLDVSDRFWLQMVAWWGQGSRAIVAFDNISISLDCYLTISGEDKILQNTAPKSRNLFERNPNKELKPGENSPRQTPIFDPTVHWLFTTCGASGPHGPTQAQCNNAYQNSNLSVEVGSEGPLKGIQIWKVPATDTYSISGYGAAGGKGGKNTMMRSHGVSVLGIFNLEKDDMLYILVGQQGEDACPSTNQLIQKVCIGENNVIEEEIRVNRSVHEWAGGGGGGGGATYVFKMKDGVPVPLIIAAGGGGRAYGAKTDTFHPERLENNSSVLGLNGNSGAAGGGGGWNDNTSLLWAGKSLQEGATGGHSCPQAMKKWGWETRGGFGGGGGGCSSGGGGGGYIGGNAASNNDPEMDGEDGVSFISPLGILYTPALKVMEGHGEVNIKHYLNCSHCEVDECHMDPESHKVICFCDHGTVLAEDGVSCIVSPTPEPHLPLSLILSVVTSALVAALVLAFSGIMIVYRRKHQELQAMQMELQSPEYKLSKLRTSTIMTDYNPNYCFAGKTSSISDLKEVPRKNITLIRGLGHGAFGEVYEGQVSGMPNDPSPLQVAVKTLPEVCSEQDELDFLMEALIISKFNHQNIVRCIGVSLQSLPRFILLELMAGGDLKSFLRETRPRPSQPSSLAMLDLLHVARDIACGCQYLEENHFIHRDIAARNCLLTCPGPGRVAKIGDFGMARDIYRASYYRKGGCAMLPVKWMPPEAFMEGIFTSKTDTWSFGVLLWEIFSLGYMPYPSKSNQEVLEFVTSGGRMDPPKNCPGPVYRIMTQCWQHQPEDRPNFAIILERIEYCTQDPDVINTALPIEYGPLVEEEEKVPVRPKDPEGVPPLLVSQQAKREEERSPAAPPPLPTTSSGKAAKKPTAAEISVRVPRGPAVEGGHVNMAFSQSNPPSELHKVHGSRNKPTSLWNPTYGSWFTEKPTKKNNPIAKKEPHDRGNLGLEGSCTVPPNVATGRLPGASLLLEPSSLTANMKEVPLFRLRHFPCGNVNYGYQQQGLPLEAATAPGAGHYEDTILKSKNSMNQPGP
- Assay procedure: ALK HTRF kinase assay
- Type: biochemical
- Condition info: compound at 500 nM or 1 mM; 90 μM ATP
Where a name gives a salt, the structure may show the parent alone.
Measurement label: ALK % of inhibition at a concentration of 500 nM or 1 mM

{"Compound": "N#Cc1cc(F)c(Cl)nc1N1CCC(CC(=O)Nc2ccc3cc2CCc2cncc(c2)Nc2ncc(Cl)c(n2)N3)CC1 [Example A241, tris(trifluoroacetate)]", "Target of assay": "Recombinant Human Anaplastic Lymphoma Kinase (Homo sapiens)", "Recorded measurement": "14%"}
{"Compound": "COc1cccc(N2CCC(CC(=O)Nc3ccc4cc3CCc3cncc(c3)Nc3ncc(Cl)c(n3)N4)CC2)c1C#N [Example A233, tris(trifluoroacetate)]", "Target of assay": "Recombinant Human Anaplastic Lymphoma Kinase (Homo sapiens)", "Recorded measurement": "24%"}
{"Compound": "O=C(Nc1ccc2cc1CCc1cccc(c1)Nc1ncc(Cl)c(n1)N2)[C@@H]1CCN(C(=O)NC2CCCC2)C1 [Example A63, trifluoroacetate]", "Target of assay": "Recombinant Human Anaplastic Lymphoma Kinase (Homo sapiens)", "Recorded measurement": "29%"}

----------
- Target of assay: Recombinant Human Anaplastic Lymphoma Kinase (Homo sapiens)
- Construct: purchased Invitrogen, Carlsbad, Calif
- Assay procedure: ALK HTRF kinase assay
- Type: biochemical
- Condition info: Table D1; 90 μM ATP
pIC50: −log10 of the molar value. Where a name gives a salt, the structure may show the parent alone.
Listing of recorded pIC50 by entry.
Measurement label: pIC50

{"Molecule": "[O-][S+]1CCOc2cccc(c2)Nc2ncc(Cl)c(n2)Nc2cccc1c2 (stereo not shown) [Example D13, trifluoroacetate]", "Measurement label": "pIC50", "Relation sign": "=", "Recorded measurement": 5.76}
{"Molecule": "Clc1cnc2nc1Nc1cccc(c1)COCc1cccc(c1)N2 [Example D21, trifluoroacetate]", "Measurement label": "pIC50", "Relation sign": "=", "Recorded measurement": 6.01}
{"Molecule": "CC(C)(C)NC(=O)N1CCN(c2cc(-c3cc4cc(c3)Nc3ncc(Cl)c(n3)Nc3cccc(c3)OCC4)ccn2)CC1 [Example D41, bis(trifluoroacetate)]", "Measurement label": "pIC50", "Relation sign": "=", "Recorded measurement": 6.55}
{"Molecule": "[O-][S+]1CCc2cccc(c2)Nc2ncc(Cl)c(n2)Nc2cccc1c2 (stereo not shown) [Example D23, trifluoroacetate]", "Measurement label": "pIC50", "Relation sign": "=", "Recorded measurement": 5.92}
{"Molecule": "O=S1(=O)CCc2cccc(c2)Nc2ncc(Cl)c(n2)Nc2cccc1c2 [Example D24, trifluoroacetate]", "Measurement label": "pIC50", "Relation sign": "=", "Recorded measurement": 5.86}
{"Molecule": "O=C(NCc1ccccc1)N1CCN(c2ccc(-c3cc4cc(c3)Nc3ncc(Cl)c(n3)Nc3cccc(c3)OCC4)cn2)CC1 [Example D48, bis(trifluoroacetate)]", "Measurement label": "pIC50", "Relation sign": "<", "Recorded measurement": 6.00}
{"Molecule": "Clc1cnc2nc1Nc1cccc(c1)SCCc1cccc(c1)N2 [Example D18, trifluoroacetate]", "Measurement label": "pIC50", "Relation sign": "=", "Recorded measurement": 6.49}

----------
The entries below are paired with their reported pIC50.
- Target of assay: TYK2 (Homo sapiens)
- Sequence (P29597 whole entry): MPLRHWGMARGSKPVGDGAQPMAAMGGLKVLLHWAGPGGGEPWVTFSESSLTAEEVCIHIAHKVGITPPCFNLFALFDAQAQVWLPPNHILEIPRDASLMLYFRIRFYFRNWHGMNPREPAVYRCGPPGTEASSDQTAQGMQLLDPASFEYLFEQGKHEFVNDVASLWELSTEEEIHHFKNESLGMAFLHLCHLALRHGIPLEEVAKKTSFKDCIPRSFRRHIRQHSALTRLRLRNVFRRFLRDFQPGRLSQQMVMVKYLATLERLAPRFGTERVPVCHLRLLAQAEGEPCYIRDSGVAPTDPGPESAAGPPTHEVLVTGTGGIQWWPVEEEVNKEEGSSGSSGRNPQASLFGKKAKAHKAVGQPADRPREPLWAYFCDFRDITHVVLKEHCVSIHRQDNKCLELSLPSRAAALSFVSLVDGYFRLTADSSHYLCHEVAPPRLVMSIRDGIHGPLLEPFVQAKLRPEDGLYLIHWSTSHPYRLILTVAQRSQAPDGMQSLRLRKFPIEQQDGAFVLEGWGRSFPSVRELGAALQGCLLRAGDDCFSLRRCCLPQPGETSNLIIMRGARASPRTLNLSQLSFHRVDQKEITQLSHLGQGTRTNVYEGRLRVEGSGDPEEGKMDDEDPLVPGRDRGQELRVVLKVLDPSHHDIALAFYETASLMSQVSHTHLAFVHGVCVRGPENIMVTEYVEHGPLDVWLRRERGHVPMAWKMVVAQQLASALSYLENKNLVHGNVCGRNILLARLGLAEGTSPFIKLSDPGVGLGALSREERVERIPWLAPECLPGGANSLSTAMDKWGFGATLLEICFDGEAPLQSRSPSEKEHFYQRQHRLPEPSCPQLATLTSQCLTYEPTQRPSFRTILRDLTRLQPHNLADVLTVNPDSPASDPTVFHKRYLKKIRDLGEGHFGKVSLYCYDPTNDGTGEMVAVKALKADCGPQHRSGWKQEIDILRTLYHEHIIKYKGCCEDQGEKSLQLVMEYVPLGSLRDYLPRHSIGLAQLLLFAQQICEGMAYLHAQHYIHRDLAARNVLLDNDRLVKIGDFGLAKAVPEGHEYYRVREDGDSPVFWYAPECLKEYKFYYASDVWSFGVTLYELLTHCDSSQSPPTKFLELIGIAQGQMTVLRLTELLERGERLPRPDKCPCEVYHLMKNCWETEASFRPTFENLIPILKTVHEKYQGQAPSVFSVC
- Assay procedure: TYK2 kinase inhibition (Table A1)
- Type: biochemical
- Condition info: Table B1
pIC50: −log10 of the molar value. Where a name gives a salt, the structure may show the parent alone.
Measurement label: pIC50

{"Compound": "O=C(Nc1ccc(CCO)cc1)c1cc2cc(c1)Nc1nc(ncc1Cl)Nc1cccc(c1)CC2 [Example B10, trifluoroacetate]", "Measurement label": "pIC50", "Relation sign": "=", "Recorded measurement": 6.76}
{"Compound": "O=C(Nc1ccc2cc1CCc1cncc(c1)Nc1ncc(Cl)c(n1)N2)N1CCN(C(=O)c2ccccc2)CC1 [Example B286, bis(trifluoroacetate)]", "Measurement label": "pIC50", "Relation sign": "<", "Recorded measurement": 6.70}
{"Compound": "CN(Cc1ccc2cc1CCc1cncc(c1)Nc1ncc(Cl)c(n1)N2)C(=O)C1CCN(C(=O)Nc2ccccc2)CC1 [Example B337, bis(trifluoroacetate)]", "Measurement label": "pIC50", "Relation sign": "<", "Recorded measurement": 6.70}
{"Compound": "CC(C)(C)c1ccccc1NC(=O)Nc1ccc2cc1CCc1cccc(c1)Nc1ncc(Cl)c(n1)N2 [Example B110, trifluoroacetate]", "Measurement label": "pIC50", "Relation sign": "=", "Recorded measurement": 7.82}
{"Compound": "CN(C)c1ccc(C(=O)Nc2ccc3cc2CCc2cccc(c2)Nc2ncc(Cl)c(n2)N3)cc1 [Example B82, bis(trifluoroacetate)]", "Measurement label": "pIC50", "Relation sign": "=", "Recorded measurement": 7.85}
{"Compound": "CC(=O)N1CCN(C(=O)Nc2ccc3cc2CCc2cncc(c2)Nc2ncc(Cl)c(n2)N3)CC1 [Example B317, bis(trifluoroacetate)]", "Measurement label": "pIC50", "Relation sign": "=", "Recorded measurement": 6.45}
{"Compound": "CC(C)(C)OC(=O)N1CCCC(NC(=O)Nc2ccc3cc2CCc2cccc(c2)Nc2ncc(Cl)c(n2)N3)C1 (stereo not shown) [Example B237]", "Measurement label": "pIC50", "Relation sign": "=", "Recorded measurement": 7.80}
{"Compound": "O=C(NCCN1CCOCC1)Nc1ccc2cc1CCc1cccc(c1)Nc1ncc(Cl)c(n1)N2 [Example B254, bis(trifluoroacetate)]", "Measurement label": "pIC50", "Relation sign": "=", "Recorded measurement": 8.09}
{"Compound": "CN1CCCC1CCNC(=O)Nc1ccc2cc1CCc1cccc(c1)Nc1ncc(Cl)c(n1)N2 (stereo not shown) [Example B256, bis(trifluoroacetate)]", "Measurement label": "pIC50", "Relation sign": "=", "Recorded measurement": 7.68}
{"Compound": "CC(C)(C)OC(=O)N1CC[C@H](NCc2ccc3cc2CCc2cccc(c2)Nc2ncc(Cl)c(n2)N3)C1 [Example B220, bis(trifluoroacetate)]", "Measurement label": "pIC50", "Relation sign": "=", "Recorded measurement": 7.55}
{"Compound": "CC(C)(C)OC(=O)NCCNC(=O)Nc1ccc2cc1CCc1cccc(c1)Nc1ncc(Cl)c(n1)N2 [Example B185]", "Measurement label": "pIC50", "Relation sign": "=", "Recorded measurement": 8.40}
{"Compound": "O=S(=O)(Nc1ccc2cc1CCc1cccc(c1)Nc1ncc(Cl)c(n1)N2)c1ccccc1 [Example B136, trifluoroacetate]", "Measurement label": "pIC50", "Relation sign": "=", "Recorded measurement": 9.12}
{"Compound": "Cc1ccccc1C(=O)Nc1ccc2cc1CCc1cccc(c1)Nc1ncc(Cl)c(n1)N2 [Example B35, trifluoroacetate]", "Measurement label": "pIC50", "Relation sign": "=", "Recorded measurement": 8.89}

----------
- Target of assay: human JAK1 (a.a. 837-1142) (Homo sapiens)
- Construct: human JAK1 (a.a. 837-1142); His tag (N); made in house; host or cells: insect cells (baculovirus)
- Sequence (P23458 849-1154): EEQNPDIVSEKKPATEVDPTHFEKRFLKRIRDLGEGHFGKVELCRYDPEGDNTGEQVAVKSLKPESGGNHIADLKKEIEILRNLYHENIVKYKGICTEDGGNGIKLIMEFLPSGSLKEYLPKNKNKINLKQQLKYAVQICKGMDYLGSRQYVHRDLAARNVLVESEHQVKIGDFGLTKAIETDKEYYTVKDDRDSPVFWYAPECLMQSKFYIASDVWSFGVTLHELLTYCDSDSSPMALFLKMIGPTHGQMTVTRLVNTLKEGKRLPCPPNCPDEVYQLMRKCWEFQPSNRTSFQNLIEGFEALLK
- Assay procedure: In vitro JAK kinase assay (HTRF, phosphorylation of a biotinylated peptide), JAK1
- Type: biochemical
- Condition info: method AA1 (90 μM ATP) or AA2 (1000 μM ATP), not stated per value; read-out: JAK1 IC50
Counter-ions that a name gives are not always drawn.
Recorded measurements of IC50, one per entry
Measurement label: IC50 (µM)

{"Compound": "O=C(CC1CCN(C(=O)Nc2ccccc2)C1)Nc1ccc2cc1CCc1cncc(c1)Nc1ncc(Cl)c(n1)N2 (stereo not shown) [Example A92, bis(trifluoroacetate)]", "Reading unit": "µM", "Recorded measurement": 0.0014}
{"Compound": "O=C(Nc1ccc2cc1CCc1cccc(c1)Nc1ncc(Cl)c(n1)N2)[C@@H]1CCCN1C(=O)Nc1ccccc1 [Example A69, trifluoroacetate]", "Reading unit": "µM", "Recorded measurement": 0.041}
{"Compound": "O=C(CC1CCN(S(=O)(=O)c2cccnc2)CC1)Nc1ccc2cc1CCc1cccc(c1)Nc1ncc(Cl)c(n1)N2 [Example A212, bis(trifluoroacetate)]", "Reading unit": "µM", "Recorded measurement": 0.0013}
{"Compound": "NCCC(=O)Nc1ccc2cc1CCc1cccc(c1)Nc1ncc(Cl)c(n1)N2 [Example A108, bis(trifluoroacetate)]", "Reading unit": "µM", "Recorded measurement": 0.006}
{"Compound": "COc1ccc(NC(=O)N2CCC(CC(=O)Nc3ccc4cc3CCc3cncc(c3)Nc3ncc(Cl)c(n3)N4)CC2)cc1 [Example A154, bis(trifluoroacetate)]", "Reading unit": "µM", "Recorded measurement": 0.0006}
{"Compound": "Cc1ncsc1C(=O)N1CCC(CC(=O)Nc2ccc3cc2CCc2cncc(c2)Nc2ncc(Cl)c(n2)N3)CC1 [Example A216, bis(trifluoroacetate)]", "Reading unit": "µM", "Recorded measurement": 0.08}
{"Compound": "Cc1ccc2cc1Nc1ncc(Cl)c(n1)Nc1cccc(c1)CC2 [Example A7, trifluoroacetate]", "Reading unit": "µM", "Recorded measurement": 0.128}
{"Compound": "O=C(CC1CCN(C(=O)c2ccccc2)CC1)Nc1ccc2cc1CCc1cncc(c1)Nc1ncc(Cl)c(n1)N2 [Example A192, bis(trifluoroacetate)]", "Reading unit": "µM", "Recorded measurement": 0.021}
{"Compound": "N#CCC(=O)Nc1ccc2cc1CCc1cccc(c1)Nc1ncc(Cl)c(n1)N2 [Example A65, trifluoroacetate]", "Reading unit": "µM", "Recorded measurement": 0.009}
{"Compound": "CC(=O)N1CCCC(C(=O)Nc2ccc3cc2CCc2cccc(c2)Nc2ncc(Cl)c(n2)N3)C1 (stereo not shown) [Example A47, trifluoroacetate]", "Reading unit": "µM", "Recorded measurement": 0.017}
{"Compound": "O=C(CC1CCN(c2nccs2)CC1)Nc1ccc2cc1CCc1cncc(c1)Nc1ncc(Cl)c(n1)N2 [Example A159, tris(trifluoroacetate)]", "Reading unit": "µM", "Recorded measurement": 0.0036}
{"Compound": "Cc1cc(C(=O)N2CC[C@@H](C(=O)Nc3ccc4cc3CCc3cccc(c3)Nc3ncc(Cl)c(n3)N4)C2)no1", "Reading unit": "µM", "Recorded measurement": 0.0072}
{"Compound": "O=C(CC1CCN(C(=O)c2cccnc2)CC1)Nc1ccc2cc1CCc1cncc(c1)Nc1ncc(Cl)c(n1)N2 [Example A188, tris(trifluoroacetate)]", "Reading unit": "µM", "Recorded measurement": 0.034}
{"Compound": "Cc1nccc(N2CCC(CC(=O)Nc3ccc4cc3CCc3cncc(c3)Nc3ncc(Cl)c(n3)N4)CC2)n1 [Example A182, tris(trifluoroacetate)]", "Reading unit": "µM", "Recorded measurement": 0.048}
{"Compound": "CCNC(=O)N1CCC(C(=O)Nc2ccc3cc2CCc2cccc(c2)Nc2ncc(Cl)c(n2)N3)CC1 [Example A59, trifluoroacetate]", "Reading unit": "µM", "Recorded measurement": 0.026}
{"Compound": "N#CCC(=O)N1CCC(CC(=O)Nc2ccc3cc2CCc2cncc(c2)Nc2ncc(Cl)c(n2)N3)CC1 [Example A245, bis(trifluoroacetate)]", "Reading unit": "µM", "Recorded measurement": 0.0032}
{"Compound": "Cc1cc(N2CCOCC2)c2cc1Nc1ncc(Cl)c(n1)Nc1cccc(c1)CC2 [Example A6, trifluoroacetate]", "Reading unit": "µM", "Recorded measurement": 0.7}
{"Compound": "COc1ccccc1NC(=O)N1CCC(CC(=O)Nc2ccc3cc2CCc2cncc(c2)Nc2ncc(Cl)c(n2)N3)CC1 [Example A152, bis(trifluoroacetate)]", "Reading unit": "µM", "Recorded measurement": 0.0004}
{"Compound": "CC(C)S(=O)(=O)c1ccc2cc1Nc1nc(ncc1Cl)Nc1cccc(c1)CC2 [Example A8, trifluoroacetate]", "Reading unit": "µM", "Recorded measurement": 0.051}
{"Compound": "N#Cc1ccc(C(F)(F)F)cc1N1CCC(CC(=O)Nc2ccc3cc2CCc2cncc(c2)Nc2ncc(Cl)c(n2)N3)CC1 [Example A237, tris(trifluoroacetate)]", "Reading unit": "µM", "Recorded measurement": 0.09}
{"Compound": "N#Cc1c(F)cccc1N1CCC(CC(=O)Nc2ccc3cc2CCc2cncc(c2)Nc2ncc(Cl)c(n2)N3)CC1 [Example A234, tris(trifluoroacetate)]", "Reading unit": "µM", "Recorded measurement": 0.0015}
{"Compound": "CC(C)NC(=O)N1CCC(CC(=O)Nc2ccc3cc2CCc2cncc(c2)Nc2ncc(Cl)c(n2)N3)CC1 [Example A99, bis(trifluoroacetate)]", "Reading unit": "µM", "Recorded measurement": 0.015}
{"Compound": "Cc1noc(C)c1C(=O)N1CCC(CC(=O)Nc2ccc3cc2CCc2cncc(c2)Nc2ncc(Cl)c(n2)N3)CC1 [Example A156, bis(trifluoroacetate)]", "Reading unit": "µM", "Recorded measurement": 0.096}
{"Compound": "N#Cc1ccnc(N2CCC(CC(=O)Nc3ccc4cc3CCc3cncc(c3)Nc3ncc(Cl)c(n3)N4)CC2)c1 [Example A178, tris(trifluoroacetate)]", "Reading unit": "µM", "Recorded measurement": 0.068}
{"Compound": "O=C(CC1CCN(c2ccncc2F)CC1)Nc1ccc2cc1CCc1cncc(c1)Nc1ncc(Cl)c(n1)N2 [Example A243, tris(trifluoroacetate)]", "Reading unit": "µM", "Recorded measurement": 0.02}

All values here come from patent US8871753B2.
